Sourced from patent US20250154277A1

We begin with a simple list: items and their reported koff.
- system.tested: T1, human 5T4-His protein (human, UniProt Q13641 32-355)
- T1 construct: also called recombinant 5T4 protein (human 5T4-his tag); human 5T4 protein; not shown: His tag
- T1 sequence (looked up): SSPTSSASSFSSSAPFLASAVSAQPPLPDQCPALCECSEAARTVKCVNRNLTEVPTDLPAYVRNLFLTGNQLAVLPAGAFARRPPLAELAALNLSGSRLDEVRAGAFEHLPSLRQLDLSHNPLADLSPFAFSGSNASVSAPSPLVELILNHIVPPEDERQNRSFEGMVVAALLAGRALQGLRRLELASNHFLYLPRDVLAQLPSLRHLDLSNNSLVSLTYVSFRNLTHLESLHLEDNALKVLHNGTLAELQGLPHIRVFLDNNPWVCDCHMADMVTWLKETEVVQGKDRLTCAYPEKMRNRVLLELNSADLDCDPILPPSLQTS
- experimental.protocol: SPR Biacore, Protein A capture
Could you give me the number in s⁻¹? Just the number is fine.

Sample records with koff:
Hu14G12-13 (antibody, V domains shown, humanized) VH: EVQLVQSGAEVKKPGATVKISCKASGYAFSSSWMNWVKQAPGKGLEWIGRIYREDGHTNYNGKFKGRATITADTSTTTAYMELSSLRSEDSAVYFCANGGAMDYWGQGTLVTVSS VL: DIQMTQSPSSLSASVGDRVTITCRASQDISNYLNWYQQKPGKAPKLLIYYTSRLHSGVPSRFSGSGSGTDFTFTISSLQPEDIATYYCQQDNTLPWTFGGGTKLEIK
0.00121
Hu14G12-43 (antibody, V domains shown, humanized) VH: QVQLVQSGAEVKKPGASVKVSCKASGYAFSSSWMNWVRQAPGQGLEWMGRIYREDGHTNYNGKFKGRVTMTADKSTTTAYMELRSLRSDDTAVYYCANGGAMDYWGQGTLVTVSS VL: DIQMTQSPSSLSASVGDRVTITCRASQDISNYLNWYQQKPGKAPKLLIYYTSRLHSGVPSRFSGSGSGTDYTFTISSLQPEDIATYFCQQDNTLPWTFGGGTKVEIK
0.0016
Hu14G12-3 (antibody, V domains shown, humanized) VH: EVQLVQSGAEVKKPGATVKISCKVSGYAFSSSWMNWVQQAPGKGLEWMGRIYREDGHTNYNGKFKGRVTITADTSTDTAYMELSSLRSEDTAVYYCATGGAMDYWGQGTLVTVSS VL: DIQMTQSPSSLSASVGDRVTISCRASQDISNYLNWYQQKPGKAVKLLIYYTSRLHSGVPSRFSGSGSGTDFTFTISSLQPEDIATYFCQQDNTLPWTFGGGTKLEIK
0.0055
Hu14G12-47 (antibody, V domains shown, humanized) VH: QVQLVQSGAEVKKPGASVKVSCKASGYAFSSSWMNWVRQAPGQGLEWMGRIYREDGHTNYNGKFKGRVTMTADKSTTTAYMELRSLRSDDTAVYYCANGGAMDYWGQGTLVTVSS VL: DIQMTQSPSTLSASVGDRVTITCRASQDISNYLNWYQQKPGKAPKLLIYYTSRLHSGVPSRFSGSGSGTEYTLTISSLQPDDIATYFCQQDNTLPWTFGGGTKVEIK
0.000921

## Input Return reported koff; argument: Hu14G12-37 (antibody, V domains shown, humanized) VH: QVQLVQSGAEVKKPGASVKVSCKASGYAFSSSWMNWVRQAPGQGLEWMGRIYREDGHTNYNGKFKGRVTMTADKSTTTAYMELSSLRSEDTAVYYCANGGAMDYWGQGTLVTVSS VL: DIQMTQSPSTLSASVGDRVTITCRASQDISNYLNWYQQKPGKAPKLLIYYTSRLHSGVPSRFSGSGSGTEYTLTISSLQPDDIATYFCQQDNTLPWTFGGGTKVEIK
## Output 0.00142
